- assayed target: DNA topoisomerase 2-alpha (Homo sapiens) (UniProt P11388)
- Sequence (P11388 whole entry): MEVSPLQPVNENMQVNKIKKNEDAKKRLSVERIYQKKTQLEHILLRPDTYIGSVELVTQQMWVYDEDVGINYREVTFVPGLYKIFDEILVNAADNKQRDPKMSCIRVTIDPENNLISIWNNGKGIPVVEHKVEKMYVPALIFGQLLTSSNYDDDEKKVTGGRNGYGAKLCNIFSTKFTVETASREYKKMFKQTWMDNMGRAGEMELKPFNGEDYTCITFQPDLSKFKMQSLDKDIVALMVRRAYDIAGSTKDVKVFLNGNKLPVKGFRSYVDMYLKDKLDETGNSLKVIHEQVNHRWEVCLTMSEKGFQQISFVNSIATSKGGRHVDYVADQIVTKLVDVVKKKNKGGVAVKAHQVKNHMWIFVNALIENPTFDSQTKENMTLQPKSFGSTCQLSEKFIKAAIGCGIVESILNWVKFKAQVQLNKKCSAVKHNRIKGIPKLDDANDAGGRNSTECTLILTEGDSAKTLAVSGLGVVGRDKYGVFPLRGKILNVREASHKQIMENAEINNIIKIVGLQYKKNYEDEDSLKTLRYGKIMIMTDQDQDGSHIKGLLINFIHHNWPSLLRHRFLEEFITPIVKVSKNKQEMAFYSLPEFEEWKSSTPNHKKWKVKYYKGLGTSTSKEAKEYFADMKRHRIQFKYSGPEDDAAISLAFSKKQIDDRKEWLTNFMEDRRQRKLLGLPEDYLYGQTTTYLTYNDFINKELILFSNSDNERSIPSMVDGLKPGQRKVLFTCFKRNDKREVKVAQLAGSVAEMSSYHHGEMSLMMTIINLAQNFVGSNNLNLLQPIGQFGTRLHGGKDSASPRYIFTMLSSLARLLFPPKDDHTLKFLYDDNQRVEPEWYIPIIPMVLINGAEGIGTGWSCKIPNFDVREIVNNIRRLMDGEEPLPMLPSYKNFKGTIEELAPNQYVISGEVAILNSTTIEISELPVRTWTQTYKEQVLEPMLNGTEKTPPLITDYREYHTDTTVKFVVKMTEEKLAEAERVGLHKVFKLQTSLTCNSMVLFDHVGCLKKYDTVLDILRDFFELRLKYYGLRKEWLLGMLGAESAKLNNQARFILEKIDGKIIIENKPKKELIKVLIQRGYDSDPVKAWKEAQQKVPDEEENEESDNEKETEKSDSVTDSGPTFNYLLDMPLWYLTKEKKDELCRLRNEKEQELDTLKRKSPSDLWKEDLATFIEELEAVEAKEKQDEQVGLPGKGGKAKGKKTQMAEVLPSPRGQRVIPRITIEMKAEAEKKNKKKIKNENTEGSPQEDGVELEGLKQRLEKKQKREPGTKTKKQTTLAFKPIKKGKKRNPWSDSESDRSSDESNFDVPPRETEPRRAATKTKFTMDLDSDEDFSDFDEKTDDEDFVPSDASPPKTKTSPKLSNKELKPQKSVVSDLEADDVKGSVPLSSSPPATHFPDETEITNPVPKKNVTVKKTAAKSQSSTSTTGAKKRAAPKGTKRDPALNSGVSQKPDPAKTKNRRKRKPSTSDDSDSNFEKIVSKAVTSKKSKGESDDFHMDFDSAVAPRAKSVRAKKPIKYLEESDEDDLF
- experiment notes: Inhibition of human recombinant DNA topoisomerse 2 alpha using pBR322 as substrate assessed as inhibition of conversion of supercoiled pBR322 to relaxed form at 20 uM after 30 mins by ethidium bromide staining-based electrophoresis analysis
We use 30% as the dividing line for inhibition: on or above the line is Y, below is N.

Please indicate if the recorded inhibition for `Oc1cccc(-c2cc(-c3ccco3)c3c(n2)-c2ccccc2C3)c1` meets or exceeds 30%. Y

Please indicate if the recorded inhibition for `Oc1ccc(-c2cc(-c3ccco3)c3c(n2)-c2ccccc2C3)cc1` meets or exceeds 30%. Y

Please indicate if the recorded inhibition for `Oc1ccccc1-c1cc(-c2ccoc2)c2c(n1)-c1ccccc1C2` meets or exceeds 30%. Y

Please indicate if the recorded inhibition for `Oc1ccccc1-c1cc(-c2ccsc2)c2c(n1)-c1ccccc1C2` meets or exceeds 30%. N

Please indicate if the recorded inhibition for `Oc1ccc(-c2cc(-c3cccs3)c3c(n2)-c2ccccc2C3)cc1` meets or exceeds 30%. N

Please indicate if the recorded inhibition for `Oc1ccccc1-c1cc(-c2cccs2)c2c(n1)-c1ccccc1C2` meets or exceeds 30%. N

Please indicate if the recorded inhibition for `Oc1cccc(-c2cc(-c3ccccn3)c3c(n2)-c2ccccc2C3)c1` meets or exceeds 30%. N

Please indicate if the recorded inhibition for `Oc1ccc(-c2cc(-c3ccsc3)c3c(n2)-c2ccccc2C3)cc1` meets or exceeds 30%. N

Please indicate if the recorded inhibition for `c1ccc(-c2cc(-c3ccco3)c3c(n2)-c2ccccc2C3)cc1` meets or exceeds 30%. N

Please indicate if the recorded inhibition for `Oc1ccc(-c2cc(-c3ccoc3)c3c(n2)-c2ccccc2C3)cc1` meets or exceeds 30%. Y

Sourced from ChEMBL document CHEMBL3596197
